Reported activation at 26.1 µM values are given for each entry in this list.
biological target: FBW7^ARG+pCycE (Homo sapiens, UniProt Q969H0, R505L); construct: GST (TEV site and flexible linker) (N, cleaved yes); made in house; host or cells: SF9 insect cells (baculovirus); assay: FBW7^ARG-cyclin E agonist ALPHAscreen (primary PRUN, confirmation CRUN1, dose-response DRUN); assay type: binding; conditions: confirmation assay, triplicate, single concentration 26.1 μM; read-out: FBW7 ACT CRUN1 Avg % Response and Stdev
Sequence (Q969H0 64-707 R505L): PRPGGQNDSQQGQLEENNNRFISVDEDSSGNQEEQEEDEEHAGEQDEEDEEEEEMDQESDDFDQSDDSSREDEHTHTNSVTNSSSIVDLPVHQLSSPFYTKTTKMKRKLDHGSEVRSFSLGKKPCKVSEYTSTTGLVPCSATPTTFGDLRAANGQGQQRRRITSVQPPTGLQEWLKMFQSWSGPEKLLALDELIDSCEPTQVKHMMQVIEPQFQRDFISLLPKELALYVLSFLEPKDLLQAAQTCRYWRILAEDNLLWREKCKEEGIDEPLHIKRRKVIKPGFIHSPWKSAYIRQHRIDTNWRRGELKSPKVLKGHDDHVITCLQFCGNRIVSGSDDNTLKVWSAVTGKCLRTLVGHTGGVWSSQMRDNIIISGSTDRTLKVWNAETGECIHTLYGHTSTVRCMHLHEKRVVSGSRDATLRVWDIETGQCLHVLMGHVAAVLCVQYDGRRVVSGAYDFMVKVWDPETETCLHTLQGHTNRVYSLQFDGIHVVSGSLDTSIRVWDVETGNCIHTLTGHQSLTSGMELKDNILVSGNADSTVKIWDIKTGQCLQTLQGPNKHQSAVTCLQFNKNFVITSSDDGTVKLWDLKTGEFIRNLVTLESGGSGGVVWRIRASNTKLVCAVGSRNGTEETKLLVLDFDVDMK
Sequence (P63208 2-163 partner): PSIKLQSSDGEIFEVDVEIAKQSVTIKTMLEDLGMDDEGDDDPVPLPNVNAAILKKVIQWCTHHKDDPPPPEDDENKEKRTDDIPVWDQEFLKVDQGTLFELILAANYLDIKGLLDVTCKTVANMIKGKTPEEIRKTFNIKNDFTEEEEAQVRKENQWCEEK
Dear colleague, please return just the value in %, with no unit written.

As a guide, the following entries are already answered.
Sample COc1cccc(/C=N/c2cnn(C)c2C(N)=O)c1O , system: FBW7^ARG+pCycE (Homo sapiens, UniProt Q969H0, R505L). Its activation at 26.1 µM is 4.06

Sample CCOC(=O)C1=CN(Cc2ccc(OC)cc2)C=C(C(=O)OCC)C1c1ccccc1OCc1ccccc1 , system: FBW7^ARG+pCycE (Homo sapiens, UniProt Q969H0, R505L). Its activation at 26.1 µM is 2.81

Sample COCCOC(=O)C1=C(C)NC2=C(C(=O)CC(c3ccccc3)C2)C1c1ccc(OCc2ccccc2)cc1 (stereo not shown) , system: FBW7^ARG+pCycE (Homo sapiens, UniProt Q969H0, R505L). Its activation at 26.1 µM is 5.36

Sample CC1=C(C(=O)OCCc2ccccc2)C(c2ccc(Cl)cc2Cl)C2=C(CC(C)(C)CC2=O)N1 (stereo not shown) , system: FBW7^ARG+pCycE (Homo sapiens, UniProt Q969H0, R505L). Its activation at 26.1 µM is 4.54

Sample COc1ccc(C2CC(=O)C3=C(C2)NC(C)=C(C(=O)OC(C)C)C3c2ccccc2OC(C)C)cc1 (stereo not shown) , system: FBW7^ARG+pCycE (Homo sapiens, UniProt Q969H0, R505L). Its activation at 26.1 µM is 6.29

Next:
Sample Cc1cccc(N2CCN(C(=O)CCc3nc(C4=CCN(C)CC4)no3)CC2C)c1 (stereo not shown) , system: FBW7^ARG+pCycE (Homo sapiens, UniProt Q969H0, R505L). Its activation at 26.1 µM is 3.38

Sample CC(=O)Nc1ccc(NC(=O)Cn2cnc3c(cnn3C(C)(C)C)c2=O)cc1 , system: FBW7^ARG+pCycE (Homo sapiens, UniProt Q969H0, R505L). Its activation at 26.1 µM is 4.47

Sample O=c1c2cnn(-c3ccccc3)c2nnn1Cc1cccnc1 , system: FBW7^ARG+pCycE (Homo sapiens, UniProt Q969H0, R505L). Its activation at 26.1 µM is 2.54

Sample CCN(CC)c1ccc2cc(-c3nc(C)cs3)c(=O)oc2c1 , system: FBW7^ARG+pCycE (Homo sapiens, UniProt Q969H0, R505L). Its activation at 26.1 µM is 5.16

Sample O=C(NCCCN1CCc2ccccc2C1)Nc1ccc(Br)cc1 , system: FBW7^ARG+pCycE (Homo sapiens, UniProt Q969H0, R505L). Its activation at 26.1 µM is 2.32

Sample Cc1ncn(-c2ccc(Nc3cc(-c4nocc4-c4ccccn4)ccn3)cc2)n1.O=C(O)C(F)(F)F , system: FBW7^ARG+pCycE (Homo sapiens, UniProt Q969H0, R505L). Its activation at 26.1 µM is 4.15

Sample COc1ccc(COC(=O)C2=C(C)NC3=C(C(=O)CC(C)(C)C3)C2c2ccccc2)cc1 (stereo not shown) , system: FBW7^ARG+pCycE (Homo sapiens, UniProt Q969H0, R505L). Its activation at 26.1 µM is 5.27

Sample O=C([C@H]1CC[C@H](Nc2nccc(-c3ccc4nc(C5CC5)nc(O)c4c3)n2)CC1)N1CCCC1 , system: FBW7^ARG+pCycE (Homo sapiens, UniProt Q969H0, R505L). Its activation at 26.1 µM is 4.42

Sample CC(C)[C@@H](CO)Nc1ccc2ncc(-c3cccc(Cl)c3)n2n1 , system: FBW7^ARG+pCycE (Homo sapiens, UniProt Q969H0, R505L). Its activation at 26.1 µM is 2.27

Sample CCSCCOC(=O)C1=C(C)NC2=C(C(=O)CC(c3ccccc3)C2)C1c1ccc(OC)cc1OC (stereo not shown) , system: FBW7^ARG+pCycE (Homo sapiens, UniProt Q969H0, R505L). Its activation at 26.1 µM is 5.16

Sample CCN1C(=O)c2cccc3c(N4CCCC4)ccc(c23)C1=O , system: FBW7^ARG+pCycE (Homo sapiens, UniProt Q969H0, R505L). Its activation at 26.1 µM is 3.1

Sample Cn1nc(CC(=O)Nc2ccc(F)c(Cl)c2)c2ccccc2c1=O , system: FBW7^ARG+pCycE (Homo sapiens, UniProt Q969H0, R505L). Its activation at 26.1 µM is 2.48

Sample CSc1ccccc1C(=O)Nc1nc2nc(C)cc(C)c2s1 , system: FBW7^ARG+pCycE (Homo sapiens, UniProt Q969H0, R505L). Its activation at 26.1 µM is 3.94

Sample Cc1cccc(CC(=O)Nc2cnn(-c3cccc(C(=O)N4CCNC(=O)CC4)c3)c2)c1 , system: FBW7^ARG+pCycE (Homo sapiens, UniProt Q969H0, R505L). Its activation at 26.1 µM is 2.88

* * *

biological target: FBW7^ARG (RLFBW7) alone (Homo sapiens, UniProt Q969H0, R505L); construct: GST (TEV site and flexible linker) (N, cleaved yes); made in house; host or cells: SF9 insect cells (baculovirus); experiment: Counterscreen 1 ALPHAscreen with FBW7^ARG alone (CSRUN1/DCSRUN1); format: binding; conditions: dose-response counterscreen, raw curve fit, read-out: RLFBW7 ACT DCSRUN1 EC50 Curve Fit Raw
test readout: pEC50
Friendly reminder that pEC50 comes from taking -log10 of the concentration in mol/L.

Form field pEC50, entry Cc1ccc2nc(SCC(=O)Nc3ncc(C)s3)c(C#N)cc2c1 : 4.79

Form field pEC50, entry CCOC(=O)C1CCN(C(=O)Nc2ccc(NC(=O)C3CCN(C(=O)OCC)CC3)cc2)CC1 : 8.13

Form field pEC50, entry CCN(CC)c1ccc2cc(-c3nc(C)cs3)c(=O)oc2c1 : 4.94

Form field pEC50, entry CC(C)(C)OC(=O)N/N=C\c1cccs1 : 6.08

Form field pEC50, entry O=C([C@H]1CC[C@H](Nc2nccc(-c3ccc4nc(C5CC5)nc(O)c4c3)n2)CC1)N1CCCC1 : 7.24

Form field pEC50, entry Cc1nc(C(C)NC(=O)c2cc(COc3ccc(F)cc3F)on2)cs1 (stereo not shown) : 7.97

Form field pEC50, entry COc1ccc(C2CC(=O)C3=C(C2)NC(C)=C(C(=O)OC(C)C)C3c2ccccc2OC(C)C)cc1 (stereo not shown) : 4.84

Form field pEC50, entry Cc1ccc(-c2cccc3cnc(Nc4ccc(-n5cnc(-c6ccccn6)n5)cc4)nc23)cn1.O=C(O)C(F)(F)F : 5.18

Next:
Form field pEC50, entry O=C(NCCCN1CCc2ccccc2C1)Nc1ccc(Br)cc1 : 6.59

Form field pEC50, entry COc1cccc(C=O)c1OC(=O)c1cccc(Cl)c1 : 7.43

Form field pEC50, entry O=C(Cc1ccc(Br)cc1)N1CCC(c2nc(O)c3cnccc3n2)C1.O=C(O)C(F)(F)F (stereo not shown) : 7.89

Form field pEC50, entry O=C(c1ccco1)N1CCN(c2ncc(-c3ccccc3CO)n3ccnc23)CC1 : 6.64

Form field pEC50, entry COc1ccc(SCC(=O)NNC(=S)Nc2ccccc2)cc1 : 5.12

Form field pEC50, entry CCN(CC)c1ccc2c(c1)OC(N)=C(C#N)C2c1ccccc1 (stereo not shown) : 4.12

Form field pEC50, entry Fc1ccccc1CSc1nnnn1-c1ccccc1F : 7.99

Form field pEC50, entry CCN(CC)c1ccc2cc(-c3ccccn3)c(=O)oc2c1 : 4.71

Form field pEC50, entry O=C(Nc1ccc2c(c1)OCO2)N1CCC(c2nnc(C3CC3)s2)CC1 : 4.61

Form field pEC50, entry COc1ccccc1N1C(=O)c2ccc(C(=O)Nc3cc([N+](=O)[O-])ccc3O)cc2C1=O : 4.67

Form field pEC50, entry O=C(NCc1ccc(C(=O)NCCc2ccccn2)cc1)Nc1ccc(-c2cn[nH]c2)cc1 : 4.55

* * *

biological target: FBW7^ARG+pCycE (Homo sapiens, UniProt Q969H0, R505L); construct: GST (TEV site and flexible linker) (N, cleaved yes); made in house; host or cells: SF9 insect cells (baculovirus); assay: FBW7^ARG-cyclin E agonist ALPHAscreen (primary PRUN, confirmation CRUN1, dose-response DRUN); type: binding; settings: DRUN dose-response, relative to WT-FBW7+pCycE; read-out: FBW7 ACT Averaged Max % Response
test readout: Emax
Express your answer as a number followed by its unit.

As a guide, the following entries are already answered.
Sample CC(=O)Nc1ccc(NC(=O)Cn2cnc3c(cnn3C(C)(C)C)c2=O)cc1 , system: FBW7^ARG+pCycE (Homo sapiens, UniProt Q969H0, R505L). Its Emax is 15.2%

Sample Cc1nc(C(C)NC(=O)c2cc(COc3ccc(F)cc3F)on2)cs1 (stereo not drawn) , system: FBW7^ARG+pCycE (Homo sapiens, UniProt Q969H0, R505L). Its Emax is 6.52%

Next:
Sample CN(C)CC[S+]([O-])c1cc(-c2cn[nH]c2)ccc1NC(=O)[C@@H]1Cc2cc(F)ccc2CN1.O=C(O)C(F)(F)F (stereo partly drawn) , system: FBW7^ARG+pCycE (Homo sapiens, UniProt Q969H0, R505L). Its Emax is 12.9%

Sample O=C(NCCCN1CCc2ccccc2C1)Nc1ccc(Br)cc1 , system: FBW7^ARG+pCycE (Homo sapiens, UniProt Q969H0, R505L). Its Emax is 6.18%

Sample Cc1cccc(NC(=O)N2CCC(c3nnc(C4CC4)s3)CC2)c1 , system: FBW7^ARG+pCycE (Homo sapiens, UniProt Q969H0, R505L). Its Emax is 18.3%

Sample CCCOc1ccc(C2C(C(=O)OC)=CN(CCOC)C=C2C(=O)OC)cc1 , system: FBW7^ARG+pCycE (Homo sapiens, UniProt Q969H0, R505L). Its Emax is 10.7%
